# System: T-47D breast
# ASSAY_COMMENT: NCI tumour cell line growth inhibition, 48 h; in the data active = GI50 below about 0.43 µM; inactive = the rest
Pick one: active, inactive

Here's what some known entries look like.
>>> label_value("[N-]=[N+]=NCCCCCC(=O)OC(C(=O)c1ccccc1)c1cccc(OCC(=O)NCCOCCOCCNC(=O)CCCC[C@@H]2SC[C@@H]3NC(=O)N[C@@H]32)c1 (stereo not given in full)")
"inactive"
>>> label_value("CCN(CC)c1ccc(C(O)C2=CC(=O)c3ccccc3C2=O)cc1 (stereo not given)")
"inactive"
>>> label_value("COc1cc(NCCCN=C(N)NC(N)=NC(C)C)c2ncccc2c1")
"inactive"

Lab log entry: CN(Cc1ccccc1)c1ccc(CO)c(Cl)c1 — outcome as called in the assay?
inactive

Lab log entry: CC(C)(C)c1cc(-n2c(-c3ccc(Cl)cc3)nc3cc(C(=O)Nc4ccc(Cl)cc4)ccc32)n[nH]1 — outcome as called in the assay?
inactive

Lab log entry: CC(=O)C1=C(O)C=C2Oc3c(C(=O)/C=C/c4c(Cl)cccc4Cl)c(O)c(C)c(O)c3[C@]2(C)C1=O — outcome as called in the assay?
active

Lab log entry: CC(C)=CCC[C@](C)(O)[C@H]1CC[C@]2(C)[C@@H]1CC[C@@H]1[C@@]3(C)CC/C(=N/O)C(C)(C)[C@@H]3CC[C@]12C — outcome as called in the assay?
inactive

Lab log entry: O=C(Cc1ccc(F)c(F)c1)Nc1cc(C2(C(F)(F)F)CC2)nn1Cc1ccccc1 — outcome as called in the assay?
inactive

Lab log entry: CC(C)=CCC/C(C)=C/CC/C(C)=C/CSc1ccccc1C(=O)O — outcome as called in the assay?
inactive

Lab log entry: Cc1nc2ccccc2c(/C=C/c2ccc(Cl)cc2)c1C(=O)/C=C/c1ccc(C(F)(F)F)cc1 — outcome as called in the assay?
active

* * *

# Tested on: SF-295 CNS
# ASSAY_COMMENT: NCI tumour cell line growth inhibition, 48 h
Each record here notes measured TGI.

Below, 5 compounds whose answers are already recorded.
>>> obs_value("N#CC(Cc1ccccc1)N(CCC1=CCCCC1)Cc1ccccc1 (stereo not drawn)")
"> 100 µM"
>>> obs_value("CC(=O)OCC1OC(Nn2c(=O)[nH]c3ccccc3c2=O)C(OC(C)=O)C(OC(C)=O)C1OC(C)=O (stereo not drawn)")
"> 100 µM"
>>> obs_value("C=CCN(C(=O)OC(C)(C)C)[C@H](C)C(=O)N[C@@H](C)C(=O)OC")
"> 100 µM"
>>> obs_value("CO/N=C(\\C)c1ccc(Nc2cc(-c3ccccc3)nc3ccc(OC)cc23)cc1")
"4.82 µM"
>>> obs_value("Cc1nnc(-c2cccc(-c3ccc(C(=O)NCC4CC4)cc3)c2)o1")
"> 25 µM"

Give its TGI value. Item: COC(=O)c1cc(C(=CCC[C@H]2CC[C@@]3(C)C(CCC4C3CC[C@@]3(C)C4CC[C@@H]3C(C)CCCC(C)C)C2)c2cc(Cl)c(O)c(C(=O)OC)c2)cc(Cl)c1O (stereo partly drawn)
> 10 µM

Give its TGI value. Item: CC(=O)c1c(C)[nH]c(-c2nc3ccc(N4CCN(C)CC4)cc3[nH]2)c1-c1ccc(N(C)C)cc1
14.8 µM

Give its TGI value. Item: O=C(c1ccccc1)C1OC12C(=O)Nc1c(Cl)cc(Cl)cc12 (stereo not drawn)
> 100 µM

Give its TGI value. Item: O=C(Nc1ccc2[nH]c(C(=O)N3CC(CCl)c4c3cc([N+](=O)[O-])c3ccccc43)cc2c1)Nc1ccc2[nH]c(C(=O)N3CC(CCl)c4c3cc([N+](=O)[O-])c3ccccc43)cc2c1 (stereo not drawn)
> 100 µM

Give its TGI value. Item: O=C(O)CCC(N=Cc1nc(-c2ccccc2)oc1O)C(=O)O (stereo not drawn)
> 100 µM

Give its TGI value. Item: C#Cc1c(/C=C/C(=O)OCC)ccc2ccccc12
45 µM

Give its TGI value. Item: Cc1c2c(c(O)c3c(O)cccc13)C(=O)C1(O)C(O)=C(C(=O)NCNc3ccc(C(N)=O)cn3)C(=O)C(N(C)C)C1C2 (stereo not drawn)
17.9 µM

Give its TGI value. Item: Nc1nnnn1CCO
> 100 µM

Give its TGI value. Item: C=C(CCC/C(C)=C/C=C/[C@@H](C)CCCc1ccoc1)C[C@@H]1OC(=O)[C@H](C)[C@@H]1O
19.1 µM

Give its TGI value. Item: CC(C)[C@H](NC(=O)[C@H](N)Cc1ccc(N(CCCl)CCCl)cc1)C(=O)O
> 100 µM

Give its TGI value. Item: CN1C(=O)C2C3C=C4c5ccccc5N(c5ccccc5)C4(C2C1=O)[C@H]1C(=O)N(C)C(=O)[C@@H]31 (stereo partly drawn)
> 100 µM

Give its TGI value. Item: C/C1=C/C(=O)O[C@@H]2C[C@@H](CC[C@H](C)/C=C\C=C\CC1)O[C@@](O)([C@@H]1CSC(=O)N1)C2
> 8.93 µM

Give its TGI value. Item: CCOC(=O)c1cc2/c(=C\c3ccc(N(C)C)cc3)c3ccccc3n2[n+]1C
16.1 µM
